# Assay target: PI3Kβ (Homo sapiens)
# Sequence (P42338 whole entry, canonical isoform): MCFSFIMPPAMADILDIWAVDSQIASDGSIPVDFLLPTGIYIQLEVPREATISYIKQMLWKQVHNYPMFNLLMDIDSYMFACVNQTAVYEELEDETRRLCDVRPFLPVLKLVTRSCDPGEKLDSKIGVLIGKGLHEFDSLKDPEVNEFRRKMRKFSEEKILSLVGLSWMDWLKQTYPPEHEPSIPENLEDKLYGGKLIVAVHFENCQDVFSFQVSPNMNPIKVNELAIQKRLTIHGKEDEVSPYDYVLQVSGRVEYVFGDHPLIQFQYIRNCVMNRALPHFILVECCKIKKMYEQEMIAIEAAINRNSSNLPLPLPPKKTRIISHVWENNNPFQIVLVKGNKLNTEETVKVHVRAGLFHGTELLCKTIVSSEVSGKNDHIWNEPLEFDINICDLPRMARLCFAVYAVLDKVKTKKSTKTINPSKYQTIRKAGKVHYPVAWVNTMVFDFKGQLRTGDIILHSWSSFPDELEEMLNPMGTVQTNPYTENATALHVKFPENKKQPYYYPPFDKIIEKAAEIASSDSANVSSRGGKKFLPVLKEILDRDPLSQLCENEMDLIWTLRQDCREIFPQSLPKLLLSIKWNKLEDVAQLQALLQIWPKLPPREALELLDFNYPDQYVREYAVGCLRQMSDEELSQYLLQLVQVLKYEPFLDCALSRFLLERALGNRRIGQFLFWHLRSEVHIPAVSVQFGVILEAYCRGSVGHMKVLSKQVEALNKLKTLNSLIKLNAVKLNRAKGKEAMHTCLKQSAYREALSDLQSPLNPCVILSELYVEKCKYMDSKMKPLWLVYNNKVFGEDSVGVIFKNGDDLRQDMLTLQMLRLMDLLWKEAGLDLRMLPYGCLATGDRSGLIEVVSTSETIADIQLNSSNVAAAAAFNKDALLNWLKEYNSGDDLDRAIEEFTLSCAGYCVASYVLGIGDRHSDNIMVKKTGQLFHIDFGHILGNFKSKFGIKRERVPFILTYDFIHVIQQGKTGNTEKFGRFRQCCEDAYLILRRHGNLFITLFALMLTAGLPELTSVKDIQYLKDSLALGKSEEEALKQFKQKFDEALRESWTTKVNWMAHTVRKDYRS
# Sequence (P27986 whole entry partner, canonical isoform): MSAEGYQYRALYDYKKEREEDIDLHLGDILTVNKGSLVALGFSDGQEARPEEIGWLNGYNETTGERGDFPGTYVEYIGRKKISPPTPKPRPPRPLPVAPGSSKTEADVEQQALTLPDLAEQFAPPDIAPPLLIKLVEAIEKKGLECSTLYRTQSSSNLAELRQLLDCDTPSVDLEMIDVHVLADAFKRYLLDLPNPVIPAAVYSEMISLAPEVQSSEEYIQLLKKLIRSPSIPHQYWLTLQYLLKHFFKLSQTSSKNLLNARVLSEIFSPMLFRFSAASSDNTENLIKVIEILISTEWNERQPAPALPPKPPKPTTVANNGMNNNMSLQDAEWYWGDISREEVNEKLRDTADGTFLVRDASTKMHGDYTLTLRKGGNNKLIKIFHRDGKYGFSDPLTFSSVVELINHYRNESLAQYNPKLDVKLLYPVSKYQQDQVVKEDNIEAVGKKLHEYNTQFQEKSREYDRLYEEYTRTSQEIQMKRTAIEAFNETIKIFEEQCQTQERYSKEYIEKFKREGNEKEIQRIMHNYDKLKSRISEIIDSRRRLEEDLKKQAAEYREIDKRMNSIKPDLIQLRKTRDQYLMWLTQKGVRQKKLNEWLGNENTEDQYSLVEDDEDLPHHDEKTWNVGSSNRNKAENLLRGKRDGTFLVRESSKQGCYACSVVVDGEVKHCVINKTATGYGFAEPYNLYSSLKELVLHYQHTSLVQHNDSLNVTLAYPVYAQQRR
# Assay details: PI3K isoform kinase assay, β (CE-assay)
# Setup conditions: read-out: IC50 on PI3K Isoforms, β
Reported metric: IC50 (µM)
Answer in µM, number only, no unit symbol.

>>> number("COCc1cn(Cc2cnc3c(N4CCOCC4)nc(-c4cccc(O)c4)nc3c2)nn1 [Compound 21]")
0.05

With those in mind, consider the next molecule.
Entry Cc1cnc2c(N3CCOCC3)nc(-c3cccc(O)c3)nc2c1 [Compound 6] , system PI3Kβ (Homo sapiens): what IC50 was measured? 0.45
